Listing: pKd of selected binders
Molecular target: SARS-CoV-2 prefusion-stabilized spike protein (SARS-CoV-2-PreS) (SARS-CoV-2, UniProt P0DTC2 14-1208)
Assay: Biacore, apparent affinity
Remember, pKd is on a log scale: it is -log10 of the molar concentration.

>  <binder>
15H1 VHH (VHH) VHH: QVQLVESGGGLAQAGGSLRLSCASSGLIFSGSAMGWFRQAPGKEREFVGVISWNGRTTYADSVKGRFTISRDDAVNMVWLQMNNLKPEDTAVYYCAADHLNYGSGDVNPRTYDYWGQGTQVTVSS

>  <readout.label>
pKd

>  <recorded.measurement>
9.22

$$$$
>  <binder>
8E9 VHH (VHH) VHH: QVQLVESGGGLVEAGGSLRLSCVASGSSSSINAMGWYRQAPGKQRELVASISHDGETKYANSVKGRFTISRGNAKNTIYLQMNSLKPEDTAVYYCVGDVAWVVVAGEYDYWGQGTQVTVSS

>  <readout.label>
pKd

>  <recorded.measurement>
8.24

$$$$
>  <binder>
15H7 VHH (VHH) VHH: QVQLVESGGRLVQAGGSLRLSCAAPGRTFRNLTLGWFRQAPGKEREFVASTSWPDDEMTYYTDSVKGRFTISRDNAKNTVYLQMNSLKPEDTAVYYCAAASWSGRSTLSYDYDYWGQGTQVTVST

>  <readout.label>
pKd

>  <recorded.measurement>
9.48

$$$$
>  <binder>
6A1 VHH-Fc (Fc fusion) QVQLVESGGGLVQAGGSLRLSCTASGNIFSVNVMGWHRQAPGKRRELVAALTNDGRRNYADSVKGRFTISRDNAKNTIYLEMNSLKPEDTAVYYCGTGTLESGFNSWGQGLQVTVSS

>  <readout.label>
pKd

>  <recorded.measurement>
8.80

$$$$
>  <binder>
5G11 VHH (VHH) VHH: QVQLVESGGGLVQAGGSLRLSCAASGRTFSIYAVGWFRQAPGKERDFVAGITWSGGTTYYSDSVKGRFTISRDNAKNTVYLQMNNLKPEDTAIYYCAVDTYSMTLSARSYDYWGQGTQVTVSS

>  <readout.label>
pKd

>  <recorded.measurement>
7.03

$$$$

[ask] Sample 5D7 VHH (VHH) VHH: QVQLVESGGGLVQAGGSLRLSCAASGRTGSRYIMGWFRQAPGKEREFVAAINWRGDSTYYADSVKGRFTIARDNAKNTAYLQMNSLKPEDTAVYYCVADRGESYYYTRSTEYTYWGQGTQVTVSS — what was its pKd?
[reply] 8.82

[ask] State the recorded pKd for this entry: 19B8 VHH-Fc (Fc fusion) QVQLVESGGGLVQAGGSLRLSCAASGRTFTNYAMGWFRQAPGKEREFVAAISWSGGGTNYADSVKGRFTISRDNAKNTVYLQMNSPKPEDTAVYYCATTLGYYGSSSRLYEYWGQGTQVTVSS
[reply] 8.96
